Each entry below carries its recorded self-cleavage.
B1: Twister Ribozyme (parent)
chain: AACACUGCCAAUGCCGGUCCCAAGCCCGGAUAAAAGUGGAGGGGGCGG

Variants of: B1
Assay: self-cleavage, relative activity (ratio to wild type); higher = more cleavage; co-transcriptional
Please reply with the value in numeric form only.

| var | self-cleavage |
| --- | --- |
| A10U G39U | 0.215 |

Which self-cleavage value belongs to U12C C26G ?
0.179

What measured self-cleavage goes with A10U C27A ?
0.645

So what does the record say about self-cleavage for G7A C19G ?
0.0847

Look up self-cleavage for this variant: C5G C8U
0.294

Requested field: self-cleavage. Item: C3A G42U
0.0908

Entry under review: U18G G41U . Reported self-cleavage?
0.0362

Look up self-cleavage for this variant: C9A U12A
0.916

Would you mind telling me what self-cleavage value was observed for C3U C46A ?
0.338

Sample G13A C27A — what was its self-cleavage?
0.0875

Quick one: self-cleavage of C3U U37A ?
0.533

What measured self-cleavage goes with A11C C15U ?
0.545

// lookup self-cleavage for C5G G13U
0.0419

Where these numbers come from: the RNAGym collection of RNA variant scans (doi:10.7554/elife.80360)
